Would you kindly list EC50 for each of these compounds?
testedOn: human PPARalpha (Homo sapiens, UniProt Q07869)
Construct: human PPARalpha receptor (amino acids S167-Y468); expressed in transfected cells
Sequence (Q07869 167-468): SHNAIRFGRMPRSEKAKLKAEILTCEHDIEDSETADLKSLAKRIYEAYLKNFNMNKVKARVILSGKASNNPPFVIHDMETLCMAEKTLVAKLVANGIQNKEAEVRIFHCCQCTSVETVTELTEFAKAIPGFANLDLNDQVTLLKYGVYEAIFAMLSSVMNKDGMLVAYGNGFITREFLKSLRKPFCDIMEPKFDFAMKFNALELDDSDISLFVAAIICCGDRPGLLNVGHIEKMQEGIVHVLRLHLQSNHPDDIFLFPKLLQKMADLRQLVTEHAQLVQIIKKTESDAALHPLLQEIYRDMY
assayProtocol: Cellular PPARalpha assay (luciferase reporter, stably transfected HEK cell line)
Format: cell-based
runParameters: PPARalpha reporter cell line (HEK, GR-GAL4-humanPPARalpha-LBD)
Protocol: Determination of EC50 Values of PPAR Agonists in the Cellular PPARalpha Assay The potency of substances which bind to human PPARalpha and activate it in an agonistic manner is analyzed using a stably transfected HEK cell line (HEK=human embryo kidney) which is referred to here as PPARalpha reporter cell line. […] The luciferase which is formed can be detected by means of chemiluminescence via an appropriate substrate. […]
Numbers only, in µM.

O=c1[nH]c(-c2ccc(S(=O)(=O)N3CCc4cc(-c5ccc(C(F)(F)F)cc5)cnc43)cc2Cl)no1; 1.89

Please find the next compound below.
Incoming: Quick one: EC50 of CC1(C)CN(S(=O)(=O)c2ccc(-c3noc(=O)[nH]3)c(Cl)c2)c2ccc(-c3ccc(C(F)(F)F)cc3)nc21 ?
Outgoing: 0.8

* * *

testedOn: human PPARdelta (Homo sapiens, UniProt Q03181)
Construct: human PPARdelta receptor (amino acids S139-Y441)
Sequence (Q03181 139-441): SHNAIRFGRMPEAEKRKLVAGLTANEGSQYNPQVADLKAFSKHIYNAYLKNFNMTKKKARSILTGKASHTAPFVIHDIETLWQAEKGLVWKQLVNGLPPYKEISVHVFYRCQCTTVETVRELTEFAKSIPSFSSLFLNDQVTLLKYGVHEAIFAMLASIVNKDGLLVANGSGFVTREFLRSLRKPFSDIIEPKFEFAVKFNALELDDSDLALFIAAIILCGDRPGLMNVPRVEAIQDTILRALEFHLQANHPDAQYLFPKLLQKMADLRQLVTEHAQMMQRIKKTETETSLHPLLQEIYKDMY
assayProtocol: Cellular PPARdelta assay (luciferase reporter, stably transfected HEK cell line)
runParameters: PPARdelta reporter cell line (HEK, GR-GAL4-humanPPARdelta-LBD)
Assign EC50 to each entry below.
One number for each entry, in nM.

Take a look at these entries with their results.
CC1(C)CN(S(=O)(=O)c2ccc(-c3noc(=O)[nH]3)c(Cl)c2)c2ccc(-c3ccc(C(F)(F)F)cc3)nc21; 2.5
COc1nc(C)ccc1-c1ccc2c(c1)CCN2S(=O)(=O)c1ccc(-c2noc(=O)[nH]2)cc1; 3550
COc1ccc(-c2ccc3c(c2)CCN3S(=O)(=O)c2ccc(-c3noc(=O)[nH]3)cc2)nc1; 1300

Switching to the query record.
Incoming: Recorded EC50 of O=c1[nH]c(-c2ccc(S(=O)(=O)N3CCc4cc(-c5ccc(C(F)(F)F)cc5)cnc43)cc2Cl)no1 , please.
Outgoing: 34
